Target: T1, mucin subtype 5AC (human, UniProt P98088 28-5654, limits assumed)
T1 construct: Not a purified recombinant protein; also called MUC5AC; crude extract antigen solution
Experiment: ELISA, plate coated with mucin fraction (CsCl isopycnic centrifugation of SW1990 tumor crude extract), HRP anti-human IgG
reported-endpoint: in vitro binding activity ratio to antibody 20 (fold vs antibody 20)

binder="antibody 4 (antibody, V domains shown, Humanized antibody of the invention; also called H01L04) VH: EVQLLESGGGLVQPGGSLRLSCAASGFTFSNYGMSWVRQAPGKGLEWVSTISNSGRYTYFPDSVKGRFTISRDNSKNTLYLQMNSLRAEDTALYYCTRHLDYANYDAMDYWGQGTLVTVSS VL: DIVMTQSPDSLAVSLGERATINCKASKSVTTSDFSYLHWYQQKPGQPPKLLIYLASNLESGVPDRFSGSGSGTDFTLTISSLQAEDVAVYYCQHSREFPWTFGGGTKLEIK" unit_text="fold vs antibody 20" readout_value=0.97
binder="antibody 8 (antibody, V domains shown, Humanized antibody of the invention; also called H02L04) VH: LVQLVESGGGVVRPGGSLRLSCAASGFTFSNYGMSWIRQAPGKGLEWVSTISNSGRYTYFPDSVKGRFTISRDNAKNSLYLQMNSLRAEDTALYYCTRHLDYANYDAMDYWGQGTLVTVSS VL: DIVMTQSPDSLAVSLGERATINCKASKSVTTSDFSYLHWYQQKPGQPPKLLIYLASNLESGVPDRFSGSGSGTDFTLTISSLQAEDVAVYYCQHSREFPWTFGGGTKLEIK" unit_text="fold vs antibody 20" readout_value=0.7
binder="antibody 18 (antibody, V domains shown, also called H06L06) VH: EVQLVESGGGLVKPGGSLRLSCAASGFTFSNYGMSWVRQAPGKGLEWVSTISNSGRYTYFPDSVKGRFTISRDNAKNSLYLQMNSLRAEDTAVYYCARHLDYANYDAMDYWGQGTLVTVSS VL: DIVMTQTPLSSPVTLGQPASISCRASKSVTTSDFSYMHWLQQRPGQPPRLLIYLASNLESGVPDRFSGSGAGTDFTLKISRVEAEDVGVYYCQHSREFPWTFGQGTKVEIK" unit_text="fold vs antibody 20" readout_value=0.13
binder="antibody 16 (antibody, V domains shown, Humanized antibody of the invention; also called H04L04) VH: EVQLLESGGGLVQPGGSLRLSCAVSGFTFSNYGMSWVRQAPGKGLEWVSTISNSGRYTYFPDSVKGRFTISRDNSRNTLYLQMNTLRAEDTAVYYCTRHLDYANYDAMDYWGQGTPVTVSS VL: DIVMTQSPDSLAVSLGERATINCKASKSVTTSDFSYLHWYQQKPGQPPKLLIYLASNLESGVPDRFSGSGSGTDFTLTISSLQAEDVAVYYCQHSREFPWTFGGGTKLEIK" unit_text="fold vs antibody 20" readout_value=1.09
